Molecular target: T1, human BMPR1B coated on MSD plates (construct not stated) (human, UniProt O00238 14-126, limits assumed)
T1 construct: also called BMPR1B receptor
T1 sequence: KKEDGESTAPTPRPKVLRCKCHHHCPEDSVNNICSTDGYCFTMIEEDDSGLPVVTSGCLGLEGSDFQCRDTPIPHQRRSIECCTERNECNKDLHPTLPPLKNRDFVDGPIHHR
Test: MSD ELISA, BMP2 blocked
Design: concentration or dose not given beside the values
Measure name: % inhibition (%)

INSERT INTO measurements (binder, endpoint_result) VALUES
  ('SC91.149 (antibody, V domains shown) VH: QVQLLQPGAELVKPGSSVKVSCKASGYTFTNYWMQWVKQRPGQGLEWIGEIDPSDTYTLYNQKFKGKATLTVDTSSSTAYMQLSSLTSEDSAVYYCARFGYYVDYWGQGTTLTVSS VL: DVVMTQTPLSLPVSLGDQASISCRSSQSLVHSTGNTYFHWYLQKPGQSPELLIYKVSNRFSGVPDRFRGSGSGTDFTLKISRVEAEDLGVYFCSQSTHVPFTFGSGTKLEIK', 47),
  ('SC91.129 (antibody, V domains shown, copies: 2 + 2) VH: QVQLQQPGAELVKPGASVKLSCKASGYTFTNYWMQWVKQRPGQGLEWIGEIDPSDRYTLYNQKFKDKATLTVDTSSSTAYMQLSSLTSEDSAVYYCARFGYYVDYWGQGTTLTVSS VL: DAVMTQSPLSLPVSLGDQASISCRSSQSLVHSTGNTYLHWYLQKPGQSPKLLIYKVSNRFSGVPDRFSGSGSGTDFTLKISRVEAEDLGVYFCSQTTHVPFTFGSGTKLEIK', 40),
  ('SC91.187 (antibody, V domains shown) VH: QVQLQQPGPEFVKPGASVKLSCKASGYTFTSYWVQWVKQRPGQGLEWIGEIDPSDNYTLYNQNFKGKATLTVDTSSSTAYMQLSSLTSEDSAVYYCARFGFYVDYWGQGTTLTVSS VL: DVVMTQTPLSLPVSLGEQASISCRSSQSLVHSTGNTYLHWYLQKPGQSPKLLIYKVSNRFSGVPDRFSGSGSGTDFTLKISRVEAEDLGVYFCSQSTHVPFTFGSGTKLEIK', 37);
